Cited source: the kinase profiling compilation of Christmann-Franck et al. (2016)

test system: BMX (human), P51813 [V600E]; assay: KINOMEscan competition binding; conditions: compound 10.0 µM
Sequence (P51813 whole entry, looked up, stated change not applied): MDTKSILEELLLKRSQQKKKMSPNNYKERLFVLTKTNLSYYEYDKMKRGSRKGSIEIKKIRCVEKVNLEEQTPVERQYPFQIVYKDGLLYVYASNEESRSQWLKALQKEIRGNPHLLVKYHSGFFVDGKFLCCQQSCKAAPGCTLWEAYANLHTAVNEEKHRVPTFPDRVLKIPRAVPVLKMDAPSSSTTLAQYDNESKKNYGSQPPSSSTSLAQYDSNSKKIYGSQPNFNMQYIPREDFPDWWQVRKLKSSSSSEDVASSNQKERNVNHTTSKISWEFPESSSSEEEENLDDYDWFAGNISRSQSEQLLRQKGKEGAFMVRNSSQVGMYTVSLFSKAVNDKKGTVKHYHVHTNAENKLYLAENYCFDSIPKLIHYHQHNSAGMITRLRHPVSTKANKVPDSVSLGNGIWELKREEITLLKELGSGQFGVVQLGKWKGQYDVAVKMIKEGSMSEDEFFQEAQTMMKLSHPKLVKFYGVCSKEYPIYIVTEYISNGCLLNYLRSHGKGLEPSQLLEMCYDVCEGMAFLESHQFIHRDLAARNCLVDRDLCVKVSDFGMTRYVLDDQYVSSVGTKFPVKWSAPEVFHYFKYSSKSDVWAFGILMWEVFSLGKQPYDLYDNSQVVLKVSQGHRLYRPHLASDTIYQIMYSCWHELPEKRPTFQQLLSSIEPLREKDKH
Cut-off 40% on kinase still bound, per cent of control: below means y, at or above means n.

Cc1cn(-c2cc(C(=O)Nc3ccc(C)c(NC(=O)c4ccno4)c3)cc(C(F)(F)F)c2)cn1 : y
COc1ccc(N(C(=O)Oc2c(C)cccc2C)c2ccnc(Nc3ccc(N4CCN(C)CC4)cc3)n2)c(OC)c1 : y
OCCCNc1cc(-c2ccnc(Nc3cccc(Cl)c3)n2)ccn1 : n

Would you kindly verify if kinase still bound, per cent of control of Cc1ccc(NC(=O)c2cccc(C(C)(C)C#N)c2)cc1Nc1ccc2ncn(C)c(=O)c2c1 is strictly less than 40%?
y

Field entry: Cc1ccc(C(=O)Nc2cccc(C(F)(F)F)c2)cc1Nc1cncc(C(N)=O)c1
y

====

target: DAPK3 (human) (UniProt O43293); test: KINOMEscan competition binding; details: compound 10.0 µM
Sequence (O43293 whole entry, looked up): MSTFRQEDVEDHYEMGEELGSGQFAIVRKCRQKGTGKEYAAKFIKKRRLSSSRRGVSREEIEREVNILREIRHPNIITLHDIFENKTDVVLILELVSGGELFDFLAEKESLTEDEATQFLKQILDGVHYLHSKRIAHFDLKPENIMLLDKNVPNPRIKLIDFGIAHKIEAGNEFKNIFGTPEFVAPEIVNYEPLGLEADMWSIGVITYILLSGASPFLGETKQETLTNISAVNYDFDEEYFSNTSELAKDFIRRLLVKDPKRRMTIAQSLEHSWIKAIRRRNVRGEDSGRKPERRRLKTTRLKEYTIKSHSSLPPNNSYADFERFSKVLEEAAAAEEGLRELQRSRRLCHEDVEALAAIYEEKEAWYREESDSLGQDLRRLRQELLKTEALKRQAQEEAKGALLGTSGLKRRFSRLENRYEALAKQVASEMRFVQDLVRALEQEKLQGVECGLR
Cut-off 80% on kinase still bound, per cent of control: below means true (1), at or above means false (0).

Some solved cases for reference:
N#C/C(=C1/Nc2ccccc2S1)c1ccnc(NCCc2cccnc2)n1 : true (1)
CCOc1cc(N2CCC(O)CC2)ccc1Nc1ncc2c(n1)N(C)c1ccccc1C(=O)N2C : false (0)
CCCS(=O)(=O)Nc1ccc(F)c(C(=O)c2c[nH]c3ncc(Cl)cc23)c1F : false (0)
CC(=O)c1c(C)c2cnc(Nc3ccc(N4CCNCC4)cn3)nc2n(C2CCCC2)c1=O : true (1)

Would you kindly verify if kinase still bound, per cent of control of COc1cc2ncnc(Nc3cccc(Cl)c3)c2cc1OC is strictly less than 80%?
true (1)

====

target: PIM1 (human) (UniProt P11309); experiment: KINOMEscan competition binding; details: compound 10.0 µM
Sequence (P11309 whole entry, looked up): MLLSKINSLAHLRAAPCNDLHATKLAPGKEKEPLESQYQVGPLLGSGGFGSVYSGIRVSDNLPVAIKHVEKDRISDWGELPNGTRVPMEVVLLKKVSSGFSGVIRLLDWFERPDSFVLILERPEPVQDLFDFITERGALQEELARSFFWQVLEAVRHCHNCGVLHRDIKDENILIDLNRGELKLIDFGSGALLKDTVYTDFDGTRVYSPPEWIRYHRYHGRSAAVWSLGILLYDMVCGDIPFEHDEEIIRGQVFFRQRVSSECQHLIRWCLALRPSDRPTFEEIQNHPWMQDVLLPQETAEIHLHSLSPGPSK
endpoint_name: kinase still bound, per cent of control (%)
Numbers only; they are read as %.

Which value of kinase still bound, per cent of control has been reported for C=CC(=O)Nc1ccc(C(=O)c2sc(Nc3ccc(N4CCN(C)CC4)cc3OC)nc2N)cc1 in the records?
90

Field entry: COc1cc(C)c(Sc2cnc(NC(=O)c3ccc(CNC(C)C(C)C)cc3)s2)cc1C(=O)N1CCN(C(C)=O)CC1 (centres undefined)
100

Field entry: CNC(=O)Nc1ccc(-c2nc(N3CC4CCC(C3)O4)c3cnn(C4CCC5(CC4)OCCO5)c3n2)cc1
100

Field entry: CCCS(=O)(=O)Nc1ccc(F)c(C(=O)c2c[nH]c3ncc(Cl)cc23)c1F
77

Field entry: CC1=C(C(=O)Nc2cc3cn[nH]c3cc2F)C(c2ccc(C(F)(F)F)cc2)CC(=O)N1 (centres undefined)
88

Field entry: COc1cc2ncnc(Nc3cccc(Cl)c3)c2cc1OC
49

Field entry: CCOc1cc(N2CCC(O)CC2)ccc1Nc1ncc2c(n1)N(C)c1ccccc1C(=O)N2C
100

Field entry: O=c1[nH]c2ccccc2n1C1CCN(Cc2ccc(-c3nc4cc5[nH]cnc5cc4nc3-c3ccccc3)cc2)CC1
93

Field entry: COc1cc2c(Nc3ccc(NC(=O)c4ccccc4)cc3)ncnc2cc1OCCCN1CCOCC1
100

====

target: MAPK11 (human) (UniProt Q15759); assay: KINOMEscan competition binding; conditions: compound 10.0 µM
Sequence (Q15759 whole entry, looked up): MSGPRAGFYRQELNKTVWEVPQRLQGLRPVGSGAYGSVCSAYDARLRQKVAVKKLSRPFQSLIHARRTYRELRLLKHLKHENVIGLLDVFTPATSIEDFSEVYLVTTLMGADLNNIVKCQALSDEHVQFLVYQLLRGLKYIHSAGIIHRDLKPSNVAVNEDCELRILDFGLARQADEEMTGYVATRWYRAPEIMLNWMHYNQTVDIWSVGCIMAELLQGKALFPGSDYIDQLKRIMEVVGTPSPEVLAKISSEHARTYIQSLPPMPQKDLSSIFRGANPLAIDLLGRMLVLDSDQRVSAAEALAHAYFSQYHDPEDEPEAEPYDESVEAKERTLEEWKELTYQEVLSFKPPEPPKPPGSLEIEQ
Below, each entry is listed alongside its reported kinase still bound, per cent of control.
Numbers only; they are read as %.

CCOc1cc(N2CCC(O)CC2)ccc1Nc1ncc2c(n1)N(C)c1ccccc1C(=O)N2C : 100
COc1cc2ncnc(Nc3cccc(Cl)c3)c2cc1OC : 57
CNC(=O)Nc1ccc(-c2nc(N3CC4CCC(C3)O4)c3cnn(C4CCC5(CC4)OCCO5)c3n2)cc1 : 100
CCN1CCN(Cc2ccc(NC(=O)c3ccc(C)c(/C=C/c4cnc5[nH]ccc5c4OC)c3)cc2C(F)(F)F)CC1 : 0
COc1ccc(N(C(=O)Oc2cc(C(=O)Nc3cccc(C(F)(F)F)c3)ccc2C)c2ccnc(Nc3ccc(N4CCN(C)CC4)cc3)n2)c(OC)c1 : 1.9
COc1cc2c(Nc3ccc(NC(=O)c4ccccc4)cc3)ncnc2cc1OCCCN1CCOCC1 : 84
N#Cc1cc(-c2ccnc(Nc3ccc(-n4cnc(-c5cccnc5)n4)cc3)n2)cc(N2CCOCC2)c1 : 79
CC(=O)c1c(C)c2cnc(Nc3ccc(N4CCNCC4)cn3)nc2n(C2CCCC2)c1=O : 96

# context switch: different compound, same kinase still bound, per cent of control
Which value of kinase still bound, per cent of control has been reported for CCN(CCO)CCCOc1ccc2c(Nc3cc(CC(=O)Nc4cccc(F)c4)[nH]n3)ncnc2c1 in the records?
100
